- System: PCA response
- MEASUREMENT_DESCRIPTION: Rat Passive Cutaneous Anaphylaxis (PCA) test
- Assay type: in vivo, Wistar rats
- MEASUREMENT_CONTEXT: iv, 0 h, Dose 25 mg/kg, Time 0 mins (prior to i.v. ovalbumin challenge)
// reported inhibition in vivo at 25 mg/kg for each item listed
Only the number, expressed in %, is required.

{"COMPOUND": "CC1C[C@@H]2C(=O)C([N+](=O)[O-])C(=O)[C@@H]2CC1C (stereo partly shown)", "MEASURED_ON": "PCA response", "UNIT_NAME": "%", "inhibition in vivo at 25 mg/kg": 7}
{"COMPOUND": "CC1C=CC[C@@H]2C(=O)C([N+](=O)[O-])C(=O)[C@H]12 (stereo partly shown)", "MEASURED_ON": "PCA response", "UNIT_NAME": "%", "inhibition in vivo at 25 mg/kg": 12}
{"COMPOUND": "O=C1C2C3C=CC(C3)C2C(=O)C1[N+](=O)[O-] (stereo not shown)", "MEASURED_ON": "PCA response", "UNIT_NAME": "%", "inhibition in vivo at 25 mg/kg": -9}
{"COMPOUND": "O=C1C2C3CCC(C3)C2C(=O)C1[N+](=O)[O-] (stereo not shown)", "MEASURED_ON": "PCA response", "UNIT_NAME": "%", "inhibition in vivo at 25 mg/kg": 8}
{"COMPOUND": "CC(=O)OC1CCC[C@@H]2C(=O)C([N+](=O)[O-])C(=O)[C@H]12 (stereo partly shown)", "MEASURED_ON": "PCA response", "UNIT_NAME": "%", "inhibition in vivo at 25 mg/kg": 12}
{"COMPOUND": "O=C1C2C3C=CC(CC3)C2C(=O)C1[N+](=O)[O-] (stereo not shown)", "MEASURED_ON": "PCA response", "UNIT_NAME": "%", "inhibition in vivo at 25 mg/kg": 0}

q: # lookup: inhibition in vivo at 25 mg/kg of CC1C=CC(C)[C@@H]2C(=O)C([N+](=O)[O-])C(=O)[C@H]12 (stereo partly shown)
a: -8

q: # lookup: inhibition in vivo at 25 mg/kg of COC(=O)C1C=CC[C@@H]2C(=O)C([N+](=O)[O-])C(=O)[C@H]12 (stereo partly shown)
a: 2

q: # lookup: inhibition in vivo at 25 mg/kg of CC1CCC[C@@H]2C(=O)C([N+](=O)[O-])C(=O)[C@H]12 (stereo partly shown)
a: -13

q: # lookup: inhibition in vivo at 25 mg/kg of O=C(O)C1C=CC[C@@H]2C(=O)C([N+](=O)[O-])C(=O)[C@H]12 (stereo partly shown)
a: 2

* * *

- Tested on: PCA response
- MEASUREMENT_DESCRIPTION: Rat Passive Cutaneous Anaphylaxis (PCA) test
- Type: in vivo, Wistar rats
- MEASUREMENT_CONTEXT: iv, 0 h, Dose 25 mg/kg, Time 0 mins (prior to i.v. ovalbumin challenge)
// reported inhibition in vivo at 25 mg/kg for each item listed
Only the number, expressed in %, is required.

{"COMPOUND": "CC1CCC(C)[C@@H]2C(=O)C([N+](=O)[O-])C(=O)[C@H]12 (stereo partly drawn) [4(b)]", "UNIT_NAME": "%", "READOUT_VALUE": 4}
{"COMPOUND": "O=C1C2C3CCC(CC3)C2C(=O)C1[N+](=O)[O-] (stereo not drawn) [13(b)]", "UNIT_NAME": "%", "READOUT_VALUE": 14}

For the next question, use this compound.
q: # lookup: inhibition in vivo at 25 mg/kg of CC1=C(C)C[C@H]2C(=O)C([N+](=O)[O-])C(=O)[C@H]2C1 (relative stereo) [1(b)]
a: 16
